# STUDY_TARGET: GSK3b (GST-full length GSK3b) (Homo sapiens)
# Construct: GST-full length GSK3b: [SignalChem G08-9G]; purchased SignalChem G08-9G
# ASSAY_INFO: GSK3b TR-FRET kinase inhibition assay
# Format: biochemical
# ASSAY_CONDITIONS: 2 μM ATP; read-out: GSK3β TR-FRET 2 μM ATP GMean IC50
The entries below are paired with their reported IC50.

# count of solved cases: 5
>>> print(df.to_string())
                                   compound  data_value
0  CCC1(c2ccccc2)C2=C(CC3(CCC3)CC2=O)Nc2ncccc21 (single isomer, unassigned) [110 A]    ≤ 100 nM
1  CCC1(c2cccc(O)c2)C2=C(CC(C)(C)CC2=O)Nc2ncccc21 (single isomer, unassigned) [Compound 1004A]    ≤ 100 nM
2  CCC1(c2cccc(-c3cc(C)nn3C)c2)C2=C(CC(C)(C)CC2=O)Nc2ncc(F)cc21 (single isomer, unassigned) [Compound 1033A]   > 5000 nM
3  CCC1(c2cccc(O)c2)C2=C(CC(C)(C)CC2=O)Nc2ncccc21 (single isomer, unassigned) [Compound 1004B]   > 5000 nM
4  CCC1(c2cccc(C(F)(F)F)c2)C2=C(CC(C)(C)CC2=O)Nc2ncccc21 (single isomer, unassigned) [Compound 1014A]   > 5000 nM

Quick check: IC50 of CCC1(c2cccc(-c3cn(C)nc3C)c2)C2=C(CC(C)(C)CC2=O)Nc2ncc(F)cc21 (single isomer, unassigned) [Compound 1032A] ? 100 to 1000 nM

---

# STUDY_TARGET: GSK3b (GST-full length GSK3b) (Homo sapiens)
# Construct: GST-full length GSK3b: [SignalChem G08-9G]; purchased SignalChem G08-9G
# ASSAY_INFO: GSK3b TR-FRET kinase inhibition assay
# Type: biochemical
# ASSAY_CONDITIONS: 1 mM ATP; Table 3; read-out: GSK3b TR-FRET 1 mM ATP Average IC50
The entries below are paired with their reported IC50.

# count of solved cases: 5
                                   compound        data_value
0  CC1(C)CC(=O)C2=C(C1)Nc1ncc(F)c(F)c1C2(C)c1ccccc1 (single isomer, unassigned) [Compound 116B]    100 to 1000 nM
1  COc1cncc(CC(C)(C)C)c1-c1cccc(C2(C)C3=C(CC(C)(C)CC3=O)Nc3ncccc32)c1 (single isomer, unassigned) [Compound 172A]    100 to 1000 nM
2  CCC1(c2cccc(-c3c(C)nn(C)c3C)c2)C2=C(CC(C)(C)CC2=O)Nc2ncccc21 (single isomer, unassigned) [Compound 150A]    100 to 1000 nM
3  CC1(C)CC(=O)C2=C(C1)Nc1ncc(F)c(C3CC3)c1C2(C)c1ccccc1 (single isomer, unassigned) [Compound 125A]    100 to 1000 nM
4  CC1(C)CC(=O)C2=C(C1)Nc1ncc(C(F)(F)F)cc1C2(C)c1cccc(S(C)(=O)=O)c1 (single isomer, unassigned) [Compound 157B]  5000 to 20000 nM

Request: IC50, test system GSK3b (GST-full length GSK3b) (Homo sapiens), entry CC1(C)CC(=O)C2=C(C1)Nc1ncc(F)c(C(F)(F)F)c1C2(C)c1cccc(S(C)(=O)=O)c1 (single isomer, unassigned) [Compound 166B] 5000 to 20000 nM

---

# STUDY_TARGET: GSK3b (GST-full length GSK3b) (Homo sapiens, UniProt P49841)
# Construct: GST-full length GSK3b: [SignalChem G08-9G]; purchased SignalChem G08-9G
# Sequence (P49841 whole entry): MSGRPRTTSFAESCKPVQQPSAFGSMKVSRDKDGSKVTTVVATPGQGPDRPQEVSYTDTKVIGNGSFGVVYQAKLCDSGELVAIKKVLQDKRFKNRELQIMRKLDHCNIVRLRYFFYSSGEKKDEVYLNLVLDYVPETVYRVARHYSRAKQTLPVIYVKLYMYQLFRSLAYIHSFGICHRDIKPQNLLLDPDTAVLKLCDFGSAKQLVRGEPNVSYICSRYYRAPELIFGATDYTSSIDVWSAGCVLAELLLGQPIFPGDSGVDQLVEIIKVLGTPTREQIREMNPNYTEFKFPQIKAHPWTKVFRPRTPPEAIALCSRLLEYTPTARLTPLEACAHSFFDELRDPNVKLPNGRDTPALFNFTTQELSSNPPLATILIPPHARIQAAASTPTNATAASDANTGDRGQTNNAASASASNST
# ASSAY_INFO: GSK3b TR-FRET kinase inhibition assay
# Format: biochemical
# ASSAY_CONDITIONS: 1 mM ATP; Table 3; read-out: GSK3b TR-FRET 1 mM ATP Average IC50
MEASURED_QUANTITY: IC50

# count of solved cases: 5
                                   compound                              study_target  measured_quantity   data_value
0  CC(C)(C)Cc1ccnc2c1C(C)(c1ccccc1)C1=C(CC(C)(C)CC1=O)N2 (single isomer, unassigned) [Compound 130A]  GSK3b (GST-full length GSK3b) (Homo sapiens, UniProt P49841)               IC50   5 to 20 µM
1  CC1(C)CC(=O)C2=C(C1)Nc1ncc(C#N)cc1C2(C)c1ccccc1 (single isomer, unassigned) [Compound 109B]  GSK3b (GST-full length GSK3b) (Homo sapiens, UniProt P49841)               IC50   5 to 20 µM
2  CC1(C)CC(=O)C2=C(C1)Nc1ncc(F)c(C(F)(F)F)c1C2(C)c1ccccc1 (single isomer, unassigned) [Compound 135A]  GSK3b (GST-full length GSK3b) (Homo sapiens, UniProt P49841)               IC50  0.1 to 1 µM
3  COc1cncc(F)c1-c1cccc(C2(C)C3=C(CC(C)(C)CC3=O)Nc3ncc(F)cc32)c1 (single isomer, unassigned) [Compound 156B]  GSK3b (GST-full length GSK3b) (Homo sapiens, UniProt P49841)               IC50   5 to 20 µM
4  CC1(C)CC(=O)C2=C(C1)Nc1ncccc1C2(C)c1cccc(-c2ccncc2)c1 (single isomer, unassigned) [Compound 131B]  GSK3b (GST-full length GSK3b) (Homo sapiens, UniProt P49841)               IC50    1 to 5 µM

API: the following record is the query input.
Quick check: IC50 of CC(C)c1cnc2c(c1)C(C)(c1ccccc1)C1=C(CC(C)(C)CC1=O)N2 (single isomer, unassigned) [Compound 119A] ? 1 to 5 µM

---

The entries below are paired with their reported IC50.
# STUDY_TARGET: GSK3a (GST-full length GSK3a) (Homo sapiens, UniProt P49840)
# Construct: GST-full length GSK3a [SignalChem G08-10G]; purchased SignalChem G08-10G
# Sequence (P49840 whole entry): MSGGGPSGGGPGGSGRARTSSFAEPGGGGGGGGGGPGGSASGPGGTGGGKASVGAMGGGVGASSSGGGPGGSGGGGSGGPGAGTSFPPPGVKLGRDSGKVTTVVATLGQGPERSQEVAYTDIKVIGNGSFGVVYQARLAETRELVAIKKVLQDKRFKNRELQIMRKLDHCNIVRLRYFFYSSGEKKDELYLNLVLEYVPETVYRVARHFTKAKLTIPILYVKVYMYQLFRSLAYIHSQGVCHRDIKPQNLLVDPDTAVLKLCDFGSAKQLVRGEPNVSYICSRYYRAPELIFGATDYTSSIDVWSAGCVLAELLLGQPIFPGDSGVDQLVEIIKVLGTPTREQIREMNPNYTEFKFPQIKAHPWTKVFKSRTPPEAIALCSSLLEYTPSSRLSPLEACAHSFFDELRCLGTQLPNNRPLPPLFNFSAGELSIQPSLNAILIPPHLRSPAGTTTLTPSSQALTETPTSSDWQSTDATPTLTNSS
# ASSAY_INFO: GSK3a TR-FRET kinase inhibition assay
# Assay type: biochemical
# ASSAY_CONDITIONS: 1 mM ATP; Table 3; read-out: GSK3a TR-FRET 1 mM ATP Average IC50

>>> df
                                   molecule                              study_target  data_value
0  CC1(C)CC(=O)C2=C(C1)Nc1ncc(F)c(C#N)c1C2(C)c1ccccc1 (single isomer, unassigned) [Compound 121B]  GSK3a (GST-full length GSK3a) (Homo sapiens, UniProt P49840)   1 to 5 µM
1  CC1(C)CC(=O)C2=C(C1)Nc1ncc(Br)c(Cl)c1C2(C)c1ccccc1 (single isomer, unassigned) [Compound 145A]  GSK3a (GST-full length GSK3a) (Homo sapiens, UniProt P49840)   1 to 5 µM
2  CC1(C)CC(=O)C2=C(C1)Nc1ncccc1C2(C)c1cccc(-c2ccncc2OCC(F)F)c1 (single isomer, unassigned) [Compound 162A]  GSK3a (GST-full length GSK3a) (Homo sapiens, UniProt P49840)  5 to 20 µM
3  CC1(C)CC(=O)C2=C(C1)Nc1ncc(Br)c(Cl)c1C2(C)c1ccccc1 (single isomer, unassigned) [Compound 145B]  GSK3a (GST-full length GSK3a) (Homo sapiens, UniProt P49840)  5 to 20 µM
4  CC(C)n1cncc1-c1cccc(C2(C)C3=C(CC(C)(C)CC3=O)Nc3ncc(C(F)(F)F)cc32)c1 (single isomer, unassigned) [Compound 171B]  GSK3a (GST-full length GSK3a) (Homo sapiens, UniProt P49840)   1 to 5 µM

Quick check: IC50 of CC1(C)CC(=O)C2=C(C1)Nc1ncc(F)c(F)c1C2(C)c1ccccc1 (single isomer, unassigned) [Compound 116A] ? 5 to 20 µM

Quick check: IC50 of CC1(C)CC(=O)C2=C(C1)Nc1ncc(F)c(C(F)(F)F)c1C2(C)c1cccc(S(C)(=O)=O)c1 (single isomer, unassigned) [Compound 166A] ? 0.1 to 1 µM

Quick check: IC50 of Cc1c(F)cnc2c1C(C)(c1cccc(S(C)(=O)=O)c1)C1=C(CC(C)(C)CC1=O)N2 (single isomer, unassigned) [Compound 144B] ? 5 to 20 µM

Quick check: IC50 of COc1cncc(F)c1-c1cccc(C2(C)C3=C(CC(C)(C)CC3=O)Nc3ncc(C)cc32)c1 (single isomer, unassigned) [Compound 155B] ? 5 to 20 µM

---

The entries below are paired with their reported pIC50.
# STUDY_TARGET: GSK3a (GST-full length GSK3a) (Homo sapiens)
# Construct: GST-full length GSK3a [SignalChem G08-10G]; purchased SignalChem G08-10G
# ASSAY_INFO: GSK3a TR-FRET kinase inhibition assay
# Format: biochemical
# ASSAY_CONDITIONS: 1 mM ATP; Table 3; read-out: GSK3a TR-FRET 1 mM ATP Average IC50
pIC50: −log10 of the molar value.

                                   compound  measured_quantity    data_value
0  CCc1ccnc2c1C(C)(c1ccccc1)C1=C(CC(C)(C)CC1=O)N2 (single isomer, unassigned) [Compound 112A]              pIC50  5.30 to 6.00
1  CC1(C)CC(=O)C2=C(C1)Nc1ncc(C(F)(F)F)c(F)c1C2(C)c1ccccc1 (single isomer, unassigned) [Compound 136A]              pIC50  4.70 to 5.30

Quick check: pIC50 of CCC1(c2ccccc2)C2=C(CC3(CCC3)CC2=O)Nc2ncccc21 (single isomer, unassigned) [Compound 110A] ? 5.30 to 6.00

Quick check: pIC50 of CC1(C)CC(=O)C2=C(C1)Nc1ncc(C(F)(F)F)c(Cl)c1C2(C)c1ccccc1 (single isomer, unassigned) [Compound 141A] ? 4.70 to 5.30

Quick check: pIC50 of Cc1nn(C)c(C)c1-c1cccc(C2(C)C3=C(CC(C)(C)CC3=O)Nc3ncc(C(F)(F)F)cc32)c1 (single isomer, unassigned) [Compound 170A] ? 5.30 to 6.00

Quick check: pIC50 of COc1cncc(F)c1-c1cccc(C2(C)C3=C(CC(C)(C)CC3=O)Nc3ncc(C(F)(F)F)cc32)c1 (single isomer, unassigned) [Compound 174B] ? 5.30 to 6.00
